details: 293.15 K; 100 kPa; Liquid; Vibrating tube method
compounds and their reported mass density

STRUCTURE SMILES STRING | mass density [kg/m3]
CC[N+](C)(C)CCCO.O=S(=O)([N-]S(=O)(=O)C(F)(F)F)C(F)(F)F | 1467.8
C[N+](CCO)(CCO)CCO.O=S(=O)([N-]S(=O)(=O)C(F)(F)F)C(F)(F)F | 1571.3
CC[N+](CCO)(CCO)CCO.O=S(=O)([N-]S(=O)(=O)C(F)(F)F)C(F)(F)F | 1534.1
CCCC[N+](CCO)(CCO)CCO.O=S(=O)([N-]S(=O)(=O)C(F)(F)F)C(F)(F)F | 1461
CC[N+](C)(C)CCOC.O=S(=O)([N-]S(=O)(=O)C(F)(F)F)C(F)(F)F | 1435.7
CC[N+](C)(CCO)CCO.O=S(=O)([N-]S(=O)(=O)C(F)(F)F)C(F)(F)F | 1519.9
CCCC[N+](C)(C)CC.O=S(=O)([N-]S(=O)(=O)C(F)(F)F)C(F)(F)F | 1376.1
